Give measured Plant response rating, Morningglory for each item. Keep answers brief.
System: morningglory
Test: Test C pre-/postemergence test
Assay type: in vivo, Ipomoea coccinea
Conditions: Postemergence, 250 g ai/ha; scale 0 to 100, 0 no effect, 100 complete control
Give bare numbers.

Recorded Plant response rating, Morningglory, per entry:
>  <compound>
Cn1nc(C(F)(F)F)c(C[S+]([O-])c2cccc[n+]2[O-])c1OCC(F)(F)C(F)(F)F (centres unmarked)

>  <Plant response rating, Morningglory>
0

$$$$
>  <compound>
Cc1cc[n+]([O-])c(S(=O)(=O)Cc2c(C(F)(F)F)nn(C)c2OC(F)F)c1

>  <Plant response rating, Morningglory>
30

$$$$
>  <compound>
CC(c1c(C(F)(F)F)nn(C)c1Cl)S(=O)(=O)c1ccc(Cl)c[n+]1[O-] (racemic)

>  <Plant response rating, Morningglory>
0

$$$$

Give Plant response rating, Morningglory for each listed item.
1. Cn1nc(C(F)(F)F)c(C[S+]([O-])c2ccc(Cl)c[n+]2[O-])c1OC(F)F (centres unmarked)
2. Cn1nc(C(F)(F)F)c(C[S+]([O-])c2cccc[n+]2[O-])c1OC(F)F (centres unmarked)

Reply text:
[50, 50]

###

Give measured Ryegrass, Italian plant response rating for each item. Keep answers brief.
Test system: Italian ryegrass
Assay: Test C pre-/postemergence test
Type: in vivo, Lolium multiflorum
Conditions: preemergence, 250 g ai/ha; scale 0 (no effect) to 100 (complete control)
Numbers only.

>  <compound>
C#CCOc1c(CS(=O)(=O)c2cccc[n+]2[O-])c(C(F)(F)F)nn1C [Compound 103]

>  <Ryegrass, Italian plant response rating>
60

$$$$
>  <compound>
Cn1nc(C(F)(F)F)c(C[S+]([O-])c2cc(F)cc[n+]2[O-])c1Cl (racemic) [Compound 42]

>  <Ryegrass, Italian plant response rating>
85

$$$$
>  <compound>
Cn1nc(C(F)(F)F)c(C[S+]([O-])c2ccc(F)c[n+]2[O-])c1OC(F)F (stereo not shown) [Compound 58]

>  <Ryegrass, Italian plant response rating>
100

$$$$
>  <compound>
CCn1nc(C(F)(F)F)c(C[S+]([O-])c2cccc[n+]2[O-])c1OCC(F)(F)F (racemic) [Compound 65]

>  <Ryegrass, Italian plant response rating>
100

$$$$
>  <compound>
CC(Oc1c(CS(=O)(=O)c2cccc[n+]2[O-])c(C(F)(F)F)nn1C)C(F)(F)F (stereo not shown) [Compound 82]

>  <Ryegrass, Italian plant response rating>
100

$$$$

Give Ryegrass, Italian plant response rating for each listed item.
1. CCc1cc[n+]([O-])c([S+]([O-])Cc2c(C(F)(F)F)nn(C)c2OC(F)F)c1 (stereo not shown) [Compound 101]
2. CC(c1c(C(F)(F)F)nn(CC(F)(F)F)c1Cl)[S+]([O-])c1cccc[n+]1[O-] (stereo not shown) [Compound 46]
3. CCc1cc[n+]([O-])c([S+]([O-])Cc2c(C(F)(F)F)nn(C)c2OCC(F)(F)F)c1 (stereo not shown) [Compound 59]

Reply text:
60
100
95

Give Ryegrass, Italian plant response rating for each listed item.
1. Cc1cc[n+]([O-])c(S(=O)(=O)C(Cl)c2c(C(F)(F)F)nn(C)c2OCC(F)(F)F)c1 (racemic) [Compound 37]
2. CCn1nc(C(F)(F)F)c(CS(=O)(=O)c2cc(C)cc[n+]2[O-])c1OCC(F)(F)F [Compound 64]

Reply text:
[100, 100]

This collection of values is drawn from patent US20100298141A1.
